# SUBJECT OF TEST: human GLP-1R (Homo sapiens)
# Sequence (P43220 24-463): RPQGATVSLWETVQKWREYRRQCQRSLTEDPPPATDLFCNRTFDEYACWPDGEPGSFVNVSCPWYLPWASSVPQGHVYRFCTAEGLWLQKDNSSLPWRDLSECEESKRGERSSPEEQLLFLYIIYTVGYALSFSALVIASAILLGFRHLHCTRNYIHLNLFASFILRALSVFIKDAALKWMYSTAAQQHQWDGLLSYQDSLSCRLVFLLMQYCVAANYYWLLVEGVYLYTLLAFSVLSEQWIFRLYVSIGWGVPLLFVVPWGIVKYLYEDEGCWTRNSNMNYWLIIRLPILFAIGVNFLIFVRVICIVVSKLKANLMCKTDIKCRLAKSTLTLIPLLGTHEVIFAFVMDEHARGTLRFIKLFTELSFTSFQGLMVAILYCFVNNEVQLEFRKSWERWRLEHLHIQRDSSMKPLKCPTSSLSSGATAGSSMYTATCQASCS
# TEST: GLP-1R Cell Assay 1: cAMP Hunter CHO-K1 GLP1R Gs cell line, HitHunter cAMP assay
# Format: cell-based
# EXPERIMENTAL CONTEXT: Table 2; cAMP Hunter CHO-K1 GLP1R Gs cells; percent activity normalized to Exendin-4
# Lookup of reported log10 of EC50 keyed by entry
MEASURED PROPERTY: log10 of EC50 (log10 of the value in nM)

COMPOUND	RESULT
O=C(O)c1ccc2nc(CN3CC(=O)N(c4cccc(OCc5ccccc5)n4)CC3=O)n(C[C@@H]3CCO3)c2c1 [Compound 17]	1.36
O=C(O)c1ccc2nc(CN3CC[C@@]4(c5cccc(OCc6ccc(Cl)cc6Cl)n5)C[C@H]4C3)n(C[C@@H]3CCO3)c2c1 (single isomer, unassigned) [Compound 126-P1]	-0.76
O=C(O)c1ccc2nc(CN3CCN(c4cccc(OCC5CCC(F)(F)CC5)n4)CC3)n(C[C@@H]3CCO3)c2c1 [Compound 36]	1.56
Cn1c(COc2cccc(N3CCN(Cc4nc5ccc(C(=O)O)cc5n4C[C@@H]4CCO4)CC3)n2)nc2ccccc21 [Compound 71]	1.20
N#Cc1ccc(COc2cccc([C@@]34CCN(Cc5nc6ccc(C(=O)O)cc6n5C[C@@H]5CCO5)C[C@@H]3C4)n2)c(F)c1 (single isomer, unassigned) [Compound 9-P1]	-0.77
O=C(O)c1ccc2nc(CN3CC[C@@]4(c5cccc(OCc6nc7ccccc7s6)n5)C[C@H]4C3)n(C[C@@H]3CCO3)c2c1 (single isomer, unassigned) [Compound 104-P1]	0.69
CCn1cncc1Cn1c(CN2CCC3(c4cccc5c4OC(C)(c4ccc(Cl)cc4F)O5)CC3C2)nc2ccc(C(=O)O)cc21 (stereo not shown) [Compound 138]	-0.97
NC(=O)c1ccc2c(c1)CCN(c1cccc(N3CCN(Cc4nc5ccc(C(=O)O)cc5n4C[C@@H]4CCO4)CC3)n1)C2 [Compound 59]	2.36
N#Cc1ccc2c(c1)CN(c1cccc(N3CCN(Cc4nc5ccc(C(=O)O)cc5n4C[C@@H]4CCO4)CC3)n1)CC2 [Compound 77]	2.07
C[C@@H]1c2ccc(C#N)cc2CCN1c1cccc(N2CCN(Cc3nc4ccc(C(=O)O)cc4n3C[C@@H]3CCO3)CC2)n1 [Compound 83]	2.36
CC1Cc2cc(C#N)cc(F)c2CN1c1cccc(N2CCN(Cc3nc4ccc(C(=O)O)cc4n3C[C@@H]3CCO3)CC2)n1 (stereo partly shown) [Compound 133]	1.03
